Each entry below lists one item and its recorded growth inhibition value.
assay: NCI Yeast Anticancer Drug Screen. Data for the bub3 strain (AID 167); settings: S. cerevisiae bub3 mutant strain, at 3.7 µM, stronger effect = higher value
Compounds without any hit were thinned out: in the full panel of roughly 79,000, 15% have a hit.

[
  {
    "Compound": "OC(c1ccc(Br)cc1)C(Cl)(Cl)Cl (configuration not stated)",
    "growth inhibition [%]": 15
  },
  {
    "Compound": "Cc1cccc(NC(=O)CBr)c1",
    "growth inhibition [%]": 58
  },
  {
    "Compound": "O=C(O)C1C2c3ccccc3C(c3ccccc32)C1C(=O)O (configuration not stated)",
    "growth inhibition [%]": -3
  },
  {
    "Compound": "Cc1c([N+](=O)[O-])oc2ccc3ccccc3c12",
    "growth inhibition [%]": -17
  },
  {
    "Compound": "O=C(COc1ccc(Cl)cc1Cl)NO",
    "growth inhibition [%]": -9
  },
  {
    "Compound": "CC[PH+](CC)CC.CC[PH+](CC)CC.[Au]",
    "growth inhibition [%]": 16
  },
  {
    "Compound": "CCNC(=O)OCC1C2=C(C(=O)C(C)=C(N)C2=O)N2CC3C(N3C)C12OC (configuration not stated)",
    "growth inhibition [%]": 9
  },
  {
    "Compound": "CCC1(O)C(=O)OCc2c1cc1n(c2=O)Cc2c-1nc1ccccc1c2OC (configuration not stated)",
    "growth inhibition [%]": -1
  },
  {
    "Compound": "O=Cc1ccc(C(F)(F)F)cc1.[C-]#[O+].[C-]#[O+].[C-]#[O+].[Cr]",
    "growth inhibition [%]": -1
  },
  {
    "Compound": "CCOC(=O)C1=C(C(=O)OCC)C2(c3ccccc3)N(O1)c1ccccc1C2(C)C (configuration not stated)",
    "growth inhibition [%]": -5
  },
  {
    "Compound": "CC[C@@]1(O)C(=O)OCc2c1cc1n(c2=O)Cc2cc3ccccc3nc2-1",
    "growth inhibition [%]": 15
  },
  {
    "Compound": "C[N+]1(CCCl)CC[N+](C)(CCCl)CC1 (configuration not stated)",
    "growth inhibition [%]": 1
  }
]

---

test: NCI Yeast Anticancer Drug Screen. Data for the sgs1 strain (AID 173);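 also: 0% = growth of vehicle-only control cultures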; settings: S. cerevisiae sgs1 mutant, at 100.0 µM, stronger effect = higher value
This is part of a sample that, as a whole, favours compounds with a hit. Of some 79,000 tested, about 15% had one in any assay.

[
  {
    "Molecule": "COc1cccc2c1C(=O)c1c(O)c3c(c(O)c1C2=O)C[C@@](O)(C(C)=O)C[C@@H]3OC1CC(N)C(OC2CC(O)C(O)C(C)O2)C(C)O1 (stereo partly drawn)",
    "growth inhibition / %": 0
  },
  {
    "Molecule": "CC(C)(C)c1cc([N+](=O)[O-])cc([N+](=O)[O-])c1O",
    "growth inhibition / %": 46
  },
  {
    "Molecule": "CCCCCCCCCC[Se]C#N",
    "growth inhibition / %": 96
  },
  {
    "Molecule": "Cc1c(N)nc([C@H](CC(N)=O)NC[C@H](N)C(N)=O)nc1C(=O)N[C@H](C(=O)N[C@H](C)[C@@H](O)[C@H](C)C(=O)N[C@H](C(=O)NCCc1nc(-c2nc(C(=O)NCCC[S+](C)C)cs2)cs1)[C@@H](C)O)C(OC1OC(CO)C(O)C(O)C1OC1OC(CO)C(O)C(OC(N)=O)C1O)c1cnc[nH]1 (stereo partly drawn)",
    "growth inhibition / %": 96
  },
  {
    "Molecule": "O=C1C=C(CN(CCCl)CCCl)C(=O)C=C1CN(CCCl)CCCl",
    "growth inhibition / %": 28
  },
  {
    "Molecule": "COc1ccc(OC)c(/C=C/[N+](=O)[O-])c1",
    "growth inhibition / %": 100
  },
  {
    "Molecule": "Oc1cccc2cccnc12",
    "growth inhibition / %": 97
  },
  {
    "Molecule": "CCC1(OC(=O)CN)C(=O)OCc2c1cc1n(c2=O)Cc2cc3ccccc3nc2-1 (stereo not drawn)",
    "growth inhibition / %": 95
  }
]

---

assay: NCI Yeast Anticancer Drug Screen. Data for the mlh1 rad18 strain (AID 175); conditions: S. cerevisiae mlh1 rad18 strain growth inhibition; at 50.0 µM
About 79,000 compounds went through this panel and 15% of them were active in at least one assay; those are over-represented in the sample as a whole. The source made the active and inactive calls. No stated cut-off is given here; in the data, active means growth inhibition above about 70%; inactive means the rest.
Classes used: TRUE for active, FALSE for inactive

[
  {
    "Compound": "Ic1cccc2c1[se]c1ccccc12",
    "Cat": "FALSE"
  },
  {
    "Compound": "NP(N)(=O)Nc1ccccc1",
    "Cat": "FALSE"
  },
  {
    "Compound": "Nc1ccc(Cl)cc1C(=O)c1ccccc1Cl",
    "Cat": "TRUE"
  },
  {
    "Compound": "CNC(Cc1ccccc1)c1ccc(OC)c(OC)c1 (configuration not stated)",
    "Cat": "FALSE"
  },
  {
    "Compound": "CC(=O)OCC12CCC(C)=CC1OC1C3(O)N=C(C)OC3C2(C)C12CO2 (configuration not stated)",
    "Cat": "FALSE"
  },
  {
    "Compound": "CC1CC(Br)C(=O)O1 (configuration not stated)",
    "Cat": "TRUE"
  },
  {
    "Compound": "C1CC[N-]CC1.CC(=N\\O)/C(C)=N/O.CC(=N\\O)/C(C)=N/O.OC1[CH-]CCCC1.[Co+2]",
    "Cat": "FALSE"
  },
  {
    "Compound": "CCC1(O)C(=O)OCc2c1cc1n(c2=O)Cc2cc3ccccc3nc2-1 (configuration not stated)",
    "Cat": "FALSE"
  },
  {
    "Compound": "CCC(=O)C(CCN1CCC2(CCCc3ccccc32)CC1)(c1ccccc1)c1ccccc1",
    "Cat": "TRUE"
  },
  {
    "Compound": "COC(=O)C1=C(C(=O)OC)C2OC1c1cc3ccccc3cc12",
    "Cat": "TRUE"
  },
  {
    "Compound": "O=C1C=CC(=O)c2c(O)ccc(O)c21",
    "Cat": "TRUE"
  },
  {
    "Compound": "Fc1ccc(NP(=S)(Nc2ccc(F)cc2F)Nc2ccc(F)cc2F)c(F)c1",
    "Cat": "TRUE"
  }
]

---

assay: NCI Yeast Anticancer Drug Screen. Data for the cln2 rad14 strain (AID 165);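 also: 0% = growth equal to vehicle treated cultures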; conditions: S. cerevisiae cln2 rad14 strain, at 50.0 µM, stronger effect = higher value
The panel holds about 79,000 compounds, 15% with a hit somewhere; the sample as a whole holds those more often.

[
  {
    "Molecule": "CC1(C)OCC(COC(=O)C=[N+]=[N-])O1 (stereo not given)",
    "growth inhibition / %": -6.95
  },
  {
    "Molecule": "Cc1cc(N(CCCl)CCCl)ccc1CN1CCCN(Cc2ccc(N(CCCl)CCCl)cc2C)C1c1cccc(F)c1",
    "growth inhibition / %": -0.15
  },
  {
    "Molecule": "CCCCCCCCCCCCCCCCCC[N+](C)(C)C",
    "growth inhibition / %": 89.9
  },
  {
    "Molecule": "C[CH2][Sn]([CH2]C)([S]CCS(=O)(=O)O)[S]CCS(=O)(=O)O (tested in a mixture with another compound)",
    "growth inhibition / %": 19
  },
  {
    "Molecule": "[Br][Ni][Br].c1ccc(CN2CCN(Cc3ccccc3)CCN(Cc3ccccc3)CCN(Cc3ccccc3)CC2)cc1",
    "growth inhibition / %": 98.2
  },
  {
    "Molecule": "CC(C)NCC(O)c1ccccc1Cl (stereo not given)",
    "growth inhibition / %": 32.9
  },
  {
    "Molecule": "CC(O)C(=O)O.CC(O)C(=O)O.[Ni] (stereo not given)",
    "growth inhibition / %": 74
  },
  {
    "Molecule": "CSc1ncc(COP(=S)(OCc2cnc(SC)nc2N)OCc2cnc(SC)nc2N)c(N)n1",
    "growth inhibition / %": 23.9
  },
  {
    "Molecule": "O=P1(NCCCl)OC(c2ccccc2)=CCN1CCCl (stereo not given)",
    "growth inhibition / %": 96
  },
  {
    "Molecule": "O=C1C=C(CN(CCCl)CCCl)C(=O)C=C1CN(CCCl)CCCl",
    "growth inhibition / %": 7.6
  }
]

---

Each entry below lists one item and its recorded growth inhibition value.
assay: NCI Yeast Anticancer Drug Screen. Data for the mlh1 strain (AID 171);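 also: 0% = growth of vehicle-treated control cultures of the same strain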; conditions: S. cerevisiae mlh1 strain growth inhibition; at 33.0 µM; stronger effect = higher value
About 79,000 compounds went through this panel and 15% of them were active in at least one assay; those are over-represented in the sample as a whole.

[
  {
    "Compound": "O=C1c2ccc3ccccc3c2CCC1N1CCCCC1 (stereo not given)",
    "Reading Unit": "%",
    "growth inhibition": 81
  },
  {
    "Compound": "C[C@@]12CCC(=O)C=C1CC[C@H]1C2=CC[C@]2(C)C1CC[C@@]2(C)O (stereo not given in full)",
    "Reading Unit": "%",
    "growth inhibition": 63
  },
  {
    "Compound": "COC(=O)C1c2cc3c(c(O)c2C(O)CC1(C)O)C(=O)c1c(O)cc2c(c1C3=O)OC1OC2(C)C(O)C(N(C)C)C1O (stereo not given)",
    "Reading Unit": "%",
    "growth inhibition": 96
  },
  {
    "Compound": "COC(=O)C1=C(C(=O)OC)SC2(S1)C(C(=O)OC)=C(C(=O)OC)Sc1c2ssc1=O",
    "Reading Unit": "%",
    "growth inhibition": 99
  },
  {
    "Compound": "CC[C@](O)(C(=O)O)c1cc2n(c(=O)c1CO)Cc1cc3ccccc3nc1-2",
    "Reading Unit": "%",
    "growth inhibition": 94
  }
]
